system: metrazol-induced clonic convulsions; test: Suppression of metrazol-induced convulsions in adult male mice; format: in vivo, Male CD1 mice; conditions: Mus musculus, IP (parenteral) administration, block of clonic convulsions after s.c. CD90 dose of metrazol, read-out: Met. IP (ED50)
value.kind: ED50

Q: # get_value(readout= ED50, system= metrazol-induced clonic convulsions) for O=C1CCN2C(=C1C(=O)Nc1ccccc1F)Nc1c2cccc1-n1ccnc1
Result: 1 mg/kg

Q: Next molecule up: O=C1CCN2C(=C1C(=O)Nc1c(F)cccc1F)Nc1c(N3CCOCC3)cccc12
Result: < 1 mg/kg

Q: Also, O=C1CCN2C(=C1C(=O)Nc1c(F)cccc1F)Nc1c2cccc1-n1ccnc1 please.
Result: ≤ 1 mg/kg

Q: Same for O=C1CCN2C(=C1C(=O)Nc1ccccc1F)Nc1c(N3CCOCC3)cccc12
Result: > 1 mg/kg

====

target: benzodiazepine site of the GABA-A receptor; assay: Benzodiazepine receptor binding assay (inhibition of 3H-flunitrazepam binding to membranes); settings: inhibition of 3H-flunitrazepam (ca. 3 nM) binding; over 10,000 = not active
Provide the reported pIC50 of each item.
The meaning of pIC50 here: minus log10 of the concentration in molar units.

Q: Please provide the recorded pIC50 for O=C1CCN2C(=C1C(=O)Nc1ccccc1F)Nc1c(N3CCSCC3)cccc12 , tested on benzodiazepine site of the GABA-A receptor.
Result: 8.07

Q: Item: COc1ccc(NC(=O)C2=C3Nc4c(N5CCOCC5)cccc4N3CCC2=O)cc1
Result: 8.69

Q: Now consider CN1C2=C(C(=O)Nc3nccs3)C(=O)CCN2c2cccc(-n3ccnc3)c21 and answer again.
Result: 8.67

Q: Another compound: O=C1CCN2C(=C1C(=O)Nc1ccccc1F)Nc1c(N3CCCCC3)cccc12
Result: 7.16

Q: Likewise for COc1cccc(NC(=O)C2=C3Nc4c(N5CCOCC5)cccc4N3CCC2=O)c1 ?
Result: 8.62

Q: Cool, now COc1ccc(NC(=O)C2=C3Nc4c(N5CCCCC5)cccc4N3CCC2=O)cc1
Result: 7.46

Q: Okay, and CN1C2=C(C(=O)Nc3ccccc3F)C(=O)CCN2c2cccc(N3CCOCC3)c21 ?
Result: 9.82

====

molecular target: benzodiazepine site of the GABA-A receptor; experiment: Benzodiazepine receptor binding assay (inhibition of 3H-flunitrazepam binding to membranes); settings: inhibition of 3H-flunitrazepam (ca. 3 nM) binding; over 10,000 = not active
value.kind: pIC50
Please report pIC50 as the negative decimal logarithm of the molar concentration, giving only the number.

Q: Fill in the blank: the reported pIC50 of O=C1CCN2C(=C1C(=O)Nc1ccccc1F)Nc1c(N3CCOCC3)cccc12 [Compound 3] is ____.
Result: 8.98

Q: Query O=C1CCN2C(=C1C(=O)Nc1c(F)cccc1F)Nc1c(N3CCCCC3)cccc12 [Compound 10] next
Result: 9.39

Q: Could you do the same for CN1C2=C(C(=O)Nc3ccccc3F)C(=O)CCN2c2cccc(N3CCSCC3)c21 [Compound 15] , please?
Result: 9.64

Q: Now the compound O=C1CCN2C(=C1C(=O)Nc1c(F)cccc1F)Nc1c2cccc1-n1ccnc1 [Compound 1]
Result: 9.18

Q: // repeat for O=C1CCN2C(=C1C(=O)Nc1ccccc1F)Nc1c(N3CCC4(CC3)OCCO4)cccc12 [Compound 20] and report
Result: 8.95

Q: // repeat for CN1C2=C(C(=O)Nc3ccccc3F)C(=O)CCN2c2cccc(N3CCCCC3)c21 [Compound 18] and report
Result: 9.66

Q: Let us now turn to CN1C2=C(C(=O)Nc3ccccc3F)C(=O)CCN2c2cccc(-n3ccnc3)c21 [Compound 13]
Result: 9.89

Q: Let us now turn to O=C1CCN2C(=C1C(=O)Nc1ccccc1F)Nc1c2cccc1-n1ccnc1 [Compound 2]
Result: 8.46

Q: Then what about the compound O=C1CCN2C(=C1C(=O)Nc1c(F)cccc1F)Nc1c(N3CCOCC3)cccc12 [Compound 4] ?
Result: 9.64

Q: Request: COCC(=O)N1CCN(c2cccc3c2N(C)C2=C(C(=O)Nc4ccccc4F)C(=O)CCN23)CC1 [Compound 22]
Result: 9.62

Q: Moving on to the next compound: O=C1CCN2C(=C1C(=O)Nc1nccs1)Nc1c2cccc1-n1ccnc1 [Compound 17]
Result: 6.80

Q: And then CN1C2=C(C(=O)Nc3ccccc3F)C(=O)CCN2c2cccc(N3CCC4(CC3)OCCO4)c21 [Compound 21] , what is it?
Result: 9.89
